experiment-notes: In vivo pharmacokinetic testing of compounds in rats
assay-setup: rat; male SD rats, single oral dose 100 mg/kg, plasma; VX-150 dosed as prodrug, active form analysed; read-out: AUC
attribute-measured: AUC (ng·h/mL)

Here is how some compounds turned out for AUC.
Provide only the value of recorded AUC for Cc1cc(F)ccc1Oc1cc(C(F)(F)F)c(Cl)cc1C(=O)Nc1cnnc(OC[C@H](O)CO)c1 [Example 116]
42500

Provide only the value of recorded AUC for Cc1cc(F)ccc1Oc1cc(C2CC2)c(C(F)(F)F)cc1C(=O)Nc1cnnc(OC[C@H](O)CO)c1 [Example 112]
115000

(P) Cc1cc(F)ccc1Oc1cc(C(F)(F)F)c(Cl)cc1C(=O)Nc1ccnc(OC[C@H](O)CO)c1 [Example 114]
(Q) Cc1cc(F)ccc1Oc1cc(C2CC2)c(C(F)(F)F)cc1C(=O)Nc1ccc(F)c(OC[C@H](O)CNC(=O)CO)c1 [Example 119]
Returns: the argument ( P or Q ) having the larger AUC. Selection: enter the item's label.
P
(P: 154000 ng·h/mL, Q: 44500 ng·h/mL)

(A) Cc1cc(F)ccc1Oc1cc(C2CC2)c(C(F)(F)F)cc1C(=O)Nc1ccnc(OC[C@H](O)CO)c1 [Example 104]
(B) Cc1cc(F)ccc1Oc1cc(C(F)(F)F)c(Cl)cc1C(=O)Nc1ccc(F)c(OC[C@H](O)CNC(=O)CO)c1 [Example 117]
Returns: the argument ( A or B ) having the larger AUC. Selection: enter the item's label.
B

###

target-desc: NaV1.1 (Homo sapiens (Human), UniProt P35498)
experiment-notes: Selectivity test for Nav ion channel subtypes: NaV1.1 (HEK293, patch clamp)
Format: cell-based
assay-setup: 1 uM; HEK293 cells
Inhibition ratio on Nav1.1 for assorted compounds

Here is how some compounds turned out for Inhibition ratio on Nav1.1.
Provide only the value of recorded Inhibition ratio on Nav1.1 for Cc1cc(F)ccc1Oc1cc(C2CC2)c(C(F)(F)F)cc1C(=O)Nc1ccc(F)c(OC[C@H](O)CNC(=O)CO)c1
<1%

Provide only the value of recorded Inhibition ratio on Nav1.1 for Cc1cc(F)ccc1Oc1cc(C(F)(F)F)c(Cl)cc1C(=O)Nc1ccc(F)c(OC[C@H](O)CNC(=O)CO)c1
<1%

Switching to the query record.
Provide only the value of recorded Inhibition ratio on Nav1.1 for Cc1cc(F)ccc1Oc1cc(C(F)(F)F)ccc1C(=O)Nc1ccn(COP(=O)(O)O)c(=O)c1 [VX-150, reference compound]
<1%

###

inhibition at 0.1 µM for assorted compounds
target-desc: human NaV1.8 ion channel (Homo sapiens (Human), UniProt Q9Y5Y9)
Sequence (Q9Y5Y9 whole entry): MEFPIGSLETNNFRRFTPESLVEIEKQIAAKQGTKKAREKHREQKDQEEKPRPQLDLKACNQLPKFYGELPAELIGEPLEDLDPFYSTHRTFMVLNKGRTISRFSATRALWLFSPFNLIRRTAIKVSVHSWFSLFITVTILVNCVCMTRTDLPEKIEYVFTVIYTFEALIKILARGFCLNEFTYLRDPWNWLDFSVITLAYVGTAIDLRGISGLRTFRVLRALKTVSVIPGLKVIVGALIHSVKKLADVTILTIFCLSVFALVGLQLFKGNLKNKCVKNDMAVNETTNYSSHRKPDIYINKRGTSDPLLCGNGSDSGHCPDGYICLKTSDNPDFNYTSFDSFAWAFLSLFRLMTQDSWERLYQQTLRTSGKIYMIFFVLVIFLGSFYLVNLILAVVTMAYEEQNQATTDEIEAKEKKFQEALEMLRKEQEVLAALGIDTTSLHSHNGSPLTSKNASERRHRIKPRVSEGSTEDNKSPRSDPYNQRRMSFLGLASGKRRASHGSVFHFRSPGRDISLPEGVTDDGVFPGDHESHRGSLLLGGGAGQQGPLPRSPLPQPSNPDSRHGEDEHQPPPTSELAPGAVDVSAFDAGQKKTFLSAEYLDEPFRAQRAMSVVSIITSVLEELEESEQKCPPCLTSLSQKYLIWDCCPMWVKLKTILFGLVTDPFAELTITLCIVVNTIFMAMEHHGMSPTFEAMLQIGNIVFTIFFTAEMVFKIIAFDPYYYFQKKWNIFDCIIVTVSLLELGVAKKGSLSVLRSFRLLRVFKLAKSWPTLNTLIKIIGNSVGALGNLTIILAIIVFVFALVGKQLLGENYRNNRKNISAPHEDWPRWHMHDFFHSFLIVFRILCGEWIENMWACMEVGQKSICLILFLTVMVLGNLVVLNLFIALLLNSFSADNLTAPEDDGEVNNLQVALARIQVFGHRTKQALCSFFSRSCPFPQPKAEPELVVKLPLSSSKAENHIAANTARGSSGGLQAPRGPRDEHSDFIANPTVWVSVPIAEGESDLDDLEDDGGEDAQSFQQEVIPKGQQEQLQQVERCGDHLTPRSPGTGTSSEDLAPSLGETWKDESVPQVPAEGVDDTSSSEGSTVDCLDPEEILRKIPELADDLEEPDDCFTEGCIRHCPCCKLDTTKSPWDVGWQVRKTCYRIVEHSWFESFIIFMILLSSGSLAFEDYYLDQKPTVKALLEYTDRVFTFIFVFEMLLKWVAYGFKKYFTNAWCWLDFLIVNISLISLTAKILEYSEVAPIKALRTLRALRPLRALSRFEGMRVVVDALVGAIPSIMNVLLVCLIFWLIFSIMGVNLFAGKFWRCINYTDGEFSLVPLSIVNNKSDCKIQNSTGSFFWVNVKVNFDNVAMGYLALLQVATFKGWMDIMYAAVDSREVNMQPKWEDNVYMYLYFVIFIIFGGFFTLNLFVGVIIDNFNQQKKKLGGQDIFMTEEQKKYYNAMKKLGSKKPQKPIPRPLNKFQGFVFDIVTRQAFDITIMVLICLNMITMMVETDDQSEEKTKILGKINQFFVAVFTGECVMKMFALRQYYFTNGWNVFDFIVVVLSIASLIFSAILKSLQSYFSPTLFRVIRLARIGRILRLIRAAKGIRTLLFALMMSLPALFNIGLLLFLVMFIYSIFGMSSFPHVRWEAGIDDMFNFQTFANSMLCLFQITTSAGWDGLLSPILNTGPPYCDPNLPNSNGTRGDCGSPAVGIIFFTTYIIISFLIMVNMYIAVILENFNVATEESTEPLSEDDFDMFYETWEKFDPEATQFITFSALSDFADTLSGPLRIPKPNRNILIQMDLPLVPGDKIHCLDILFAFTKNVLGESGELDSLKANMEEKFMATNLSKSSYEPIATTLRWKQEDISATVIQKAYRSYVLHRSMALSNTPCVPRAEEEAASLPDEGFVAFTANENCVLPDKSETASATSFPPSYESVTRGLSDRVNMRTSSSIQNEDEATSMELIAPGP
experiment-notes: Compound inhibition activity on human NaV1.8 ion channel in HEK293 cells (whole-cell patch clamp)
Assay type: cell-based
assay-setup: 100 nm concentration; HEK293 cells, resting protocol; read-out: Inhibition ratio of Nav1.8 (Activity of inhibition)
Method: Test Case 1: Compound Inhibition Activity on Human NaV1.8 Ion Channel in HEK293 Cells The final concentrations of the test compounds are prepared on the same day and then dissolved in extracellular solution. […] The intracellular solution (mM) contains: Aspartic acid, 140; MgCl2, 2; EGTA 11; HEPES, 10; pH 7.2 (CsOH titration). All test solutions contain 1 μM TTX. The test solution are stored at a concentration of 3 mM in dimethyl sulfoxide (DMSO). […]

Provide only the value of recorded inhibition at 0.1 µM for Cc1cc(F)ccc1Oc1cc(C2CC2)c(C(F)(F)F)cc1C(=O)Nc1ccc(F)c(C(C)CN)c1 (stereo not drawn)
50 to 80%

Provide only the value of recorded inhibition at 0.1 µM for Cc1cc(F)ccc1Oc1cc(C2CC2)c(C(F)(F)F)cc1C(=O)Nc1ccc(F)c(C(N)CCN)c1 (stereo not drawn)
> 80%

Provide only the value of recorded inhibition at 0.1 µM for Cc1cc(F)ccc1Oc1ccc(C(F)(F)F)cc1C(=O)Nc1ccc(F)c(C(N)C(N)=O)c1 (stereo not drawn)
> 80%

Provide only the value of recorded inhibition at 0.1 µM for Cc1cc(F)ccc1Oc1cc(C2CC2)c(C(F)(F)F)cc1C(=O)Nc1ccc(F)c(C(N)C(N)=O)c1 (stereo not drawn)
> 80%

Provide only the value of recorded inhibition at 0.1 µM for Cc1cc(F)ccc1Oc1cc(C(F)(F)F)ccc1C(=O)Nc1ccc(F)c(C(N)C(N)=O)c1 (stereo not drawn)
> 80%

Provide only the value of recorded inhibition at 0.1 µM for Cc1cc(F)ccc1Oc1cc(C2CC2)c(C(F)(F)F)cc1C(=O)Nc1ccc(F)c(C(F)CCO)c1 (stereo not drawn)
50 to 80%
